# Tested on: PXR:RXRa (NR concentration 270 nM, RXRa partner concentration 90 nM)
# measurement_notes: PBM binding z-score (relative to random genomic background probes); higher = stronger binding; sequences stand for … in GC…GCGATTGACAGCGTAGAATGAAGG
measured_parameter: PBM binding z-score

CACACTAGGTCAAGGTCAAAGTCGGTTTGTGCCA
5.54
CGCCCAAGGTCAAAGGTCAGTGAAGAGATGACGG
7.03
CGAACCAGGTCAGAACAGGACAGTGAAGGATGAT
1.66
GGAACGAGGGTATTCGAGTTGATAGCATGGCGAT
1.19
TCTTGTAGATCAAAGGTTTAGAAAGCCGAAGCCT
0.16
CCAGACAGGTGAGAACGTAACTCAGCCTCGATTA
-0.267
ATATGTAGGTTAAGGGTCATTCATGTTGGTTCGC
4.77
TCTACTAGTTGATTAGGGCAACCGAAACAGCGGA
0.00114
CGTCCAAGGTCATAGGCGGTCAGTGAAGACAGAT
5.12

* * *

# Tested on: RXRa homodimer (NR concentration 180 nM)
# measurement_notes: PBM binding z-score (relative to random genomic background probes); higher = stronger binding; sequences stand for … in GC…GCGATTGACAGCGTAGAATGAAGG
Classification field: Y = PBM binding z-score at or over 1; N = PBM binding z-score under 1.

ATATTTAGGTTAAGGGTCATTCAGGTTGGTTCGC
Y
TAGCTTAGGTCATTCAGGGGCCAGTATAGAAAGC
Y
AGTCAAAGTTCATCTAGGTAGCGTAAGATATGCT
Y
CCGACTGGGGCATAAGGTTATCATAAGCCAGCCC
Y
CGTCCAAGGTCATAGGAGGTCAGTGCAGACAGAT
Y
TCTGCTAGGTCAACGATGGTCTGCTAATCTGCTA
Y
ACAGACAGGTGATGAAGGTAACTAAGGCTATCAT
N
TCTATTAGTTGATTAGGGTAACCGAAACAGCGGA
N
ACAGACAAGTGATGAAGGTAACTCAGGCTATCAT
N
CAAACTAGGTCAAGAGGTCAAAGACCGCTTCCCG
Y
GTAGACAGGTGAAACGCAGGTAACTCAGGGTGGC
N
CCGACAGGGGCAAGGTTACCATAACGCACAGCCA
Y
CGAACTAGGTCAGAACAGGACACTGAAGGATGAT
Y
CCGAGTAGGTGATGGGGCATTCAGGCAACGGTGA
N
CGTCCAAGGTCAAGGTCAGTGAGAGAGACTCGAA
Y
CTACCACGGTGAACAAGGTCGTTGATTACTATTC
N
CCTCCAAGGTCAAAGGTCAGTGAAGAGATGACGG
Y
AGAACCAGGGCAATGAGTTGATAGCACGGGTGGC
N

* * *

# Tested on: VDR homodimer (NR concentration 270 nM)
# measurement_notes: PBM binding z-score (relative to random genomic background probes); higher = stronger binding; sequences stand for … in GC…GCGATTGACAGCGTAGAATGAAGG
measured_parameter: PBM binding z-score

CCTTACGGGTCACTGACAGGTAATAGCATTTGGA
0.456
CCTACCGGGCCATTCAGAGGTCATTGATCATATG
4.05
CAGCCTAGGTCCGGGCCAGTATAGGAGGAACGTT
-0.835
GCTAGTTGGTCAGTAAAAGGTCACCCACCGGTCG
1.26
ATCGAAAGGTCGTGAGATGAGTATACAGAAAGGC
0.66
CCTACTGGGCCAAAAAGGTCCTTGATGCCGATAA
-0.393
AATACAGGGTCACTAGGCCAGAGTTGGTACGAAT
2.58

* * *

# Test system: RARb homodimer (NR concentration 270 nM)
# measurement_notes: PBM binding z-score (relative to random genomic background probes); higher = stronger binding; sequences stand for … in GC…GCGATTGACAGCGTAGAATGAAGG
// reported PBM binding z-score per item
measured_parameter: PBM binding z-score

ACTAGCAGTCCAAGTTTGGGTCACTCAAACAAAG
1.97
CGATCTAGGTCAGAACAGGACAGTGAAGGATGAT
1.97
CTCGAGAGGTCGGTTGAGGTGAGTATACGGATAA
1.99

* * *

# Test system: LXRa homodimer (NR concentration 270 nM)
# measurement_notes: PBM binding z-score (relative to random genomic background probes); higher = stronger binding; sequences stand for … in GC…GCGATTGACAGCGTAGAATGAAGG
measured_parameter: PBM binding z-score

TCCTGTAGATCAAGCAGGTTAAGAAAGCCTGAGT
-0.387
GCTAGTTGGTCAGTAAAAGGCCACACACCGGTCG
-0.17
ACTAGCAGGGCAAGTTTGGGTCACTCAAACAAAG
-0.346
AGTCAAAGTTCAGGACGAGGTAACGTATAGCACG
1.43
GCTCGCAGGCCATTTGGGTCACTCAATGACGGGC
-0.668
CTGGAAAGGTCGGTTGAGGTGAGTATACGGATAA
0.136
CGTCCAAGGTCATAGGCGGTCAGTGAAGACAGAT
2.89
ACAGACAGGTGGGTGAAGGTAACTCAGCTGGACG
-0.335
CGTTACGGGTCACTCCAGGTTATAGCATCGGAGT
1.6
AGTCAAAGTACACTAGGTAACGTAAGATTCAGCT
-0.164
TCAGACAGGTGAAGGGAACTCAGGTACGCAGTCG
0.0804
CGTGAAAGTTCAAGGTAACGTAACAGAAAGCAGC
2.82
GGAACGAGGGCATTCGAGTTGATAGTATGGCGAT
-0.324
GCTAGTTGGTCAATAAAAGGTCACACACCGGTCG
6.33
CGAACTAGGTCAATGACAGGACAGTGAATAGTAA
0.289
TCGAGTAGGTTAGTCGGGGCACTCAGCCAACATA
-0.0703
CCAACTGGGCCAAGGTCATTGATCAGTCAAAGCA
0.591
TCTAGTTGGTAAAAGGTCACACACTCGAAATGCG
4.26

* * *

// reported PBM binding z-score per item
# Tested on: RARg:RXRa (NR concentration 270 nM, RXRa partner concentration 90 nM)
# measurement_notes: PBM binding z-score (relative to random genomic background probes); higher = stronger binding; sequences stand for … in GC…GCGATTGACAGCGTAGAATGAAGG
measured_parameter: PBM binding z-score

TTAACAAGGTGAAGGTCGTTGATCCCTCTGTAGA
1.38
CCGAGTAGGCTATGGGGCATTCAGGCAACGGTGA
-0.57
CCTACAGGGCCAAAAAGGTCATTGATGCCGATAA
4.75
CTCGAAAGGGCGGTTGAGGTGAGTATACGGATAA
0.317
CGTCCATGGTCAGCAGGTCAGTGAAAGCGACGTG
1.81
CAAACTAGGTCAAGGGCAAAGTCGGTTTGTGCCA
3.94
TCTCGTAGATCAAAGGTTAAGAAAGCCGAAGCCT
1.65
CCGACTGGGGCAGAAAGGTTACCAAACCATCCGG
1.52
TCTATTAGTTGAAGGGCGACCGACGAGTCCGTTT
0.105
TATACACGGTCAAAGGCCAGAGTACGAATGTCGA
2.53
TAGCGTAGGTCATGCGGGCCAGTATAGTGTCGGC
4.14
GCTTACGGTTCAAAGGTTATAGCATGAATAGAAT
3.57
CGTCCAAGGTCAGCAGGACAGTGAAAGCGACGTG
5.05
CGTCAAAGTTCAAGGAAACGTAACAGAAAGCAGC
4.85
CGTCCCAGGTCAAAGGTCAGTGAAGAGATGACGG
7.98
CCTATTAGTTGTCCATAAGGGCAACCGAAGCTCG
1.01
CTACCAAGGTGAACAAGGTTGTTGATTACTATTC
0.783
ATATGTAGGTTACATCCGGGTCATTCAAGCTATG
3.76
ACTTGCGGGTCAACGAGGTTATAGCACGCGTATA
5.21
ATATTTAGGTTATCGGGTCATTCAGTTTGCGCAT
3.54
CCTAGTAGTTGACCATAAGGGCAACCGAAGCTCG
1.13
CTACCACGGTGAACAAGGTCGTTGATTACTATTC
0.591
TCTCGGAGGACTCGAAAGGTCAGAGCTCGACATC
3.85

* * *

# Test system: PPARg DBDmut:RXRa IVT, anti-PPARg (DBD mutation: PPARg1 K132A/R137A, NR concentration 270 nM, RXRa partner concentration 90 nM)
# measurement_notes: PBM binding z-score (relative to random genomic background probes); higher = stronger binding; sequences stand for … in GC…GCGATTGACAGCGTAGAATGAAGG
measured_parameter: PBM binding z-score

TAGCCTAGGTCATTCAGGGGCGAGTATAGAAAGC
0.363
GTATATAGGTAATACAAGGTGAAAGTCCGATTGT
2.12
TCTTGTAGATCAAGCAGGTTGAGAAAGCCTGAGT
-0.788
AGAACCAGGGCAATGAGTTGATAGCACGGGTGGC
0.333
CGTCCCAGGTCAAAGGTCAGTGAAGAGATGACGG
0.207
CTACCAACGTGAACAAGGTCGTTGATTACTATTC
0.577
CGAACTAGGACAGAACAGGACAGTGAAGGATGAT
0.329
TAGCCTCGGTCATGCGGGCCAGTATAGTGTCGGC
-0.318
